# Tested on: MCF-7
# test.summary: MTT cytotoxicity assay, MCF-7 (1st panel)
# Format: cell-based, human
# measurement.setup: Homo sapiens, MCF7, 72 h, ± SD; MTT, 72 h

compound: CO[C@H]1/C=C\C=C(/C)C(=O)NC2=CC(=O)C(NC3C[N+]4(C/C=C/c5ccccc5)CCC3CC4)=C(C[C@@H](C)C[C@H](OC)[C@H](O)[C@@H](C)/C=C(\C)[C@@H]1OC(N)=O)C2=O (stereo partly shown)
IC50 / nM: 2310

compound: C/C=C/C[N+]12CCC(CC1)C(NC1=C3C[C@@H](C)C[C@H](OC)[C@H](O)[C@@H](C)/C=C(\C)[C@H](OC(N)=O)[C@@H](OC)/C=C\C=C(/C)C(=O)NC(=CC1=O)C3=O)C2 (stereo partly shown)
IC50 / nM: 2510

compound: CO[C@H]1/C=C\C=C(/C)C(=O)NC2=CC(=O)C(NC3C[N+]4(Cc5ccc([N+](=O)[O-])o5)CCC3CC4)=C(C[C@@H](C)C[C@H](OC)[C@H](O)[C@@H](C)/C=C(\C)[C@@H]1OC(N)=O)C2=O (stereo partly shown)
IC50 / nM: 4670

compound: CO[C@H]1/C=C\C=C(/C)C(=O)NC2=CC(=O)C(NC3CCN(C(C)=O)CC3)=C(C[C@@H](C)C[C@H](OC)[C@H](O)[C@@H](C)/C=C(\C)[C@@H]1OC(N)=O)C2=O
IC50 / nM: 610

---

# Tested on: MCF-7
# test.summary: MTT cytotoxicity assay, MCF-7 (1st panel)
# Format: cell-based, human
# measurement.setup: Homo sapiens, MCF7, 72 h, ± SD; MTT, 72 h
pIC50: −log10 of the molar value.
observable: pIC50

compound: COC1=C2C[C@@H](C)C[C@H](OC)[C@H](O)[C@@H](C)/C=C(\C)[C@H](OC(N)=O)[C@@H](OC)/C=C\C=C(/C)C(=O)NC(=CC1=O)C2=O [GDM, Geldanamycin]
measurement.target: MCF-7
value.prefix: =
value.measured: 5.45
--
compound: C=CC[N+]12CCC(CC1)C(NC1=C3C[C@@H](C)C[C@H](OC)[C@H](O)[C@@H](C)/C=C(\C)[C@H](OC(N)=O)[C@@H](OC)/C=C\C=C(/C)C(=O)NC(=CC1=O)C3=O)C2 (stereo partly drawn) [Compound 9]
measurement.target: MCF-7
value.prefix: =
value.measured: 5.63
--
compound: CO[C@H]1/C=C\C=C(/C)C(=O)NC2=CC(=O)C(NC3CCC(O)CC3)=C(C[C@@H](C)C[C@H](OC)[C@H](O)[C@@H](C)/C=C(\C)[C@@H]1OC(N)=O)C2=O (stereo partly drawn) [Compound 4]
measurement.target: MCF-7
value.prefix: <
value.measured: 5.00

---

# Tested on: PC-3
# test.summary: SRB cytotoxicity assay, PC-3 (2nd panel)
# Assay type: cell-based, human
# measurement.setup: Homo sapiens, PC-3; ± SD; SRB, 72 h; mixtures equimolar 1:1
pIC50: −log10 of the molar value.
observable: pIC50

molecule: CO[C@H]1/C=C\C=C(/C)C(=O)NC2=CC(=O)C(NC3C[N+]4(C/C=C/c5ccccc5)CCC3CC4)=C(C[C@@H](C)C[C@H](OC)[C@H](O)[C@@H](C)/C=C(\C)[C@@H]1OC(N)=O)C2=O (stereo partly drawn)
value.measured: 5.69
--
molecule: C=CC[N+]12CCC(CC1)C(NC1=C3C[C@@H](C)C[C@H](OC)[C@H](O)[C@@H](C)/C=C(\C)[C@H](OC(N)=O)[C@@H](OC)/C=C\C=C(/C)C(=O)NC(=CC1=O)C3=O)C2 (stereo partly drawn)
value.measured: 5.52
--
molecule: CO[C@H]1/C=C\C=C(/C)C(=O)NC2=CC(=O)C(NC3C[N+]4(Cc5ccc([N+](=O)[O-])o5)CCC3CC4)=C(C[C@@H](C)C[C@H](OC)[C@H](O)[C@@H](C)/C=C(\C)[C@@H]1OC(N)=O)C2=O (stereo partly drawn)
value.measured: 5.21
--
molecule: COc1cccc2c1C(=O)c1c(O)c3c(c(O)c1C2=O)C[C@@](O)(C(=O)CO)C[C@@H]3O[C@H]1C[C@H](N)[C@H](O)[C@H](C)O1 [DOX, doxorubicin, reference compound]
value.measured: 6.17
--
molecule: CO[C@H]1/C=C\C=C(/C)C(=O)NC2=CC(=O)C(NC3CCC3)=C(C[C@@H](C)C[C@H](OC)[C@H](O)[C@@H](C)/C=C(\C)[C@@H]1OC(N)=O)C2=O
value.measured: 5.15
--
molecule: CO[C@H]1/C=C\C=C(/C)C(=O)NC2=CC(=O)C(NC3CN4CCC3CC4)=C(C[C@@H](C)C[C@H](OC)[C@H](O)[C@@H](C)/C=C(\C)[C@@H]1OC(N)=O)C2=O (stereo partly drawn)
value.measured: 5.83
--
molecule: CO[C@H]1/C=C\C=C(/C)C(=O)NC2=CC(=O)C(NC3C[N+]4(Cc5ccsc5Br)CCC3CC4)=C(C[C@@H](C)C[C@H](OC)[C@H](O)[C@@H](C)/C=C(\C)[C@@H]1OC(N)=O)C2=O (stereo partly drawn)
value.measured: 5.10
--
molecule: C/C=C/C[N+]12CCC(CC1)C(NC1=C3C[C@@H](C)C[C@H](OC)[C@H](O)[C@@H](C)/C=C(\C)[C@H](OC(N)=O)[C@@H](OC)/C=C\C=C(/C)C(=O)NC(=CC1=O)C3=O)C2 (stereo partly drawn)
value.measured: 5.73
--
molecule: COC1=C2C[C@@H](C)C[C@H](OC)[C@H](O)[C@@H](C)/C=C(\C)[C@H](OC(N)=O)[C@@H](OC)/C=C\C=C(/C)C(=O)NC(=CC1=O)C2=O
value.measured: 6.14

---

# Tested on: SKBR-3
# test.summary: SRB cytotoxicity assay, SKBR-3 (2nd panel)
# Assay type: cell-based, human
# measurement.setup: IC50 normal cell line HDF/IC50 SKBR-3
# maps each entry to its selectivity index SIHDF (SKBR-3)

compound: CO[C@H]1/C=C\C=C(/C)C(=O)NC2=CC(=O)C(NC3CCC3)=C(C[C@@H](C)C[C@H](OC)[C@H](O)[C@@H](C)/C=C(\C)[C@@H]1OC(N)=O)C2=O
selectivity index SIHDF (SKBR-3): 4.03
//
compound: C=CC[N+]12CCC(CC1)C(NC1=C3C[C@@H](C)C[C@H](OC)[C@H](O)[C@@H](C)/C=C(\C)[C@H](OC(N)=O)[C@@H](OC)/C=C\C=C(/C)C(=O)NC(=CC1=O)C3=O)C2 (stereo partly shown)
selectivity index SIHDF (SKBR-3): 1.70
//
compound: CO[C@H]1/C=C\C=C(/C)C(=O)NC2=CC(=O)C(NC3C[N+]4(Cc5ccc([N+](=O)[O-])o5)CCC3CC4)=C(C[C@@H](C)C[C@H](OC)[C@H](O)[C@@H](C)/C=C(\C)[C@@H]1OC(N)=O)C2=O (stereo partly shown)
selectivity index SIHDF (SKBR-3): 1.22
//
compound: CO[C@H]1/C=C\C=C(/C)C(=O)NC2=CC(=O)C(NC3CN4CCC3CC4)=C(C[C@@H](C)C[C@H](OC)[C@H](O)[C@@H](C)/C=C(\C)[C@@H]1OC(N)=O)C2=O (stereo partly shown)
selectivity index SIHDF (SKBR-3): 2.16

---

# Tested on: SKBR-3
# test.summary: SRB cytotoxicity assay, SKBR-3 (2nd panel)
# Format: cell-based, human
# measurement.setup: IC50 normal cell line HDF/IC50 SKBR-3
# maps each entry to its selectivity index SIHDF (SKBR-3)

compound: COC1=C2C[C@@H](C)C[C@H](OC)[C@H](O)[C@@H](C)/C=C(\C)[C@H](OC(N)=O)[C@@H](OC)/C=C\C=C(/C)C(=O)NC(=CC1=O)C2=O
measurement.target: SKBR-3
selectivity index SIHDF (SKBR-3): 2.45
//
compound: CO[C@H]1/C=C\C=C(/C)C(=O)NC2=CC(=O)C(NC3C[N+]4(C/C=C/c5ccccc5)CCC3CC4)=C(C[C@@H](C)C[C@H](OC)[C@H](O)[C@@H](C)/C=C(\C)[C@@H]1OC(N)=O)C2=O (some centres unmarked)
measurement.target: SKBR-3
selectivity index SIHDF (SKBR-3): 1.89
//
compound: COc1cccc2c1C(=O)c1c(O)c3c(c(O)c1C2=O)C[C@@](O)(C(=O)CO)C[C@@H]3O[C@H]1C[C@H](N)[C@H](O)[C@H](C)O1 [DOX, doxorubicin, reference compound]
measurement.target: SKBR-3
selectivity index SIHDF (SKBR-3): 2.11
//
compound: C/C=C/C[N+]12CCC(CC1)C(NC1=C3C[C@@H](C)C[C@H](OC)[C@H](O)[C@@H](C)/C=C(\C)[C@H](OC(N)=O)[C@@H](OC)/C=C\C=C(/C)C(=O)NC(=CC1=O)C3=O)C2 (some centres unmarked)
measurement.target: SKBR-3
selectivity index SIHDF (SKBR-3): 1.53
//
compound: CO[C@H]1/C=C\C=C(/C)C(=O)NC2=CC(=O)C(NC3C[N+]4(Cc5ccsc5Br)CCC3CC4)=C(C[C@@H](C)C[C@H](OC)[C@H](O)[C@@H](C)/C=C(\C)[C@@H]1OC(N)=O)C2=O (some centres unmarked)
measurement.target: SKBR-3
selectivity index SIHDF (SKBR-3): 1.64
